Listed here: items and their measured Product (Peak area x 10^6): DP=3.
- Test system: M-1-P-producing enzyme
- Test method notes: Maltose transfer reaction without phosphate, HPLC analysis of products
- Type: biochemical, Corynebacterium glutamicum JCM1321
- Measurement context: 2.0% substrate, 0.16 U/mL enzyme, one hour at 37°C

• OC[C@H]1O[C@H](O[C@H]2[C@H](O)[C@@H](O)[C@@H](O[C@H]3[C@H](O)[C@@H](O)[C@@H](O[C@H]4[C@H](O)[C@@H](O)[C@@H](O[C@H]5[C@H](O)[C@@H](O)C(O)O[C@@H]5CO)O[C@@H]4CO)O[C@@H]3CO)O[C@@H]2CO)[C@H](O)[C@@H](O)[C@@H]1O (stereo partly shown) = 0.51 x 10^6
• OC[C@H]1O[C@H](O[C@H]2[C@H](O)[C@@H](O)[C@@H](O[C@H]3[C@H](O)[C@@H](O)[C@@H](O[C@H]4[C@H](O)[C@@H](O)C(O)O[C@@H]4CO)O[C@@H]3CO)O[C@@H]2CO)[C@H](O)[C@@H](O)[C@@H]1O (stereo partly shown) = 1.25 x 10^6
• OC[C@H]1O[C@H](O[C@H]2[C@H](O)[C@@H](O)[C@@H](O[C@H]3[C@H](O)[C@@H](O)[C@@H](O[C@H]4[C@H](O)[C@@H](O)[C@@H](O[C@H]5[C@H](O)[C@@H](O)[C@@H](O[C@H]6[C@H](O)[C@@H](O)[C@@H](O[C@H]7[C@H](O)[C@@H](O)C(O)O[C@@H]7CO)O[C@@H]6CO)O[C@@H]5CO)O[C@@H]4CO)O[C@@H]3CO)O[C@@H]2CO)[C@H](O)[C@@H](O)[C@@H]1O (stereo partly shown) = 0.12 x 10^6
• OC[C@H]1OC(O)[C@H](O)[C@@H](O)[C@@H]1O (stereo partly shown) = 0.00 x 10^6

For OC[C@H]1O[C@H](O[C@H]2[C@H](O)[C@@H](O)[C@@H](O[C@H]3[C@H](O)[C@@H](O)[C@@H](O[C@H]4[C@H](O)[C@@H](O)[C@@H](O[C@H]5[C@H](O)[C@@H](O)[C@@H](O[C@H]6[C@H](O)[C@@H](O)C(O)O[C@@H]6CO)O[C@@H]5CO)O[C@@H]4CO)O[C@@H]3CO)O[C@@H]2CO)[C@H](O)[C@@H](O)[C@@H]1O (stereo partly shown) on M-1-P-producing enzyme, measured Product (Peak area x 10^6): DP=3 was 0.37 x 10^6

For OC[C@H]1O[C@H](O[C@H]2[C@H](O)[C@@H](O)C(O)O[C@@H]2CO)[C@H](O)[C@@H](O)[C@@H]1O (mixture of isomers) on M-1-P-producing enzyme, measured Product (Peak area x 10^6): DP=3 was 0.27 x 10^6

For OC[C@H]1O[C@H](O[C@H]2[C@H](O)[C@@H](O)[C@@H](O[C@H]3[C@H](O)[C@@H](O)C(O)O[C@@H]3CO)O[C@@H]2CO)[C@H](O)[C@@H](O)[C@@H]1O (stereo partly shown) on M-1-P-producing enzyme, measured Product (Peak area x 10^6): DP=3 was 33.27 x 10^6

###

Listed here: items and their measured Product (Peak area x 10^6): DP=8.
- Tested on: M-1-P-producing enzyme
- Test method notes: Maltose transfer reaction without phosphate, HPLC analysis of products
- Type: biochemical, Corynebacterium glutamicum JCM1321
- Measurement context: 2.0% substrate, 0.16 U/mL enzyme, one hour at 37°C

- OC[C@H]1O[C@H](O[C@H]2[C@H](O)[C@@H](O)[C@@H](O[C@H]3[C@H](O)[C@@H](O)[C@@H](O[C@H]4[C@H](O)[C@@H](O)C(O)O[C@@H]4CO)O[C@@H]3CO)O[C@@H]2CO)[C@H](O)[C@@H](O)[C@@H]1O (some centres unmarked) [Maltotetraose]: 0.00 x 10^6
- OC[C@H]1O[C@H](O[C@H]2[C@H](O)[C@@H](O)[C@@H](O[C@H]3[C@H](O)[C@@H](O)[C@@H](O[C@H]4[C@H](O)[C@@H](O)[C@@H](O[C@H]5[C@H](O)[C@@H](O)[C@@H](O[C@H]6[C@H](O)[C@@H](O)[C@@H](O[C@H]7[C@H](O)[C@@H](O)C(O)O[C@@H]7CO)O[C@@H]6CO)O[C@@H]5CO)O[C@@H]4CO)O[C@@H]3CO)O[C@@H]2CO)[C@H](O)[C@@H](O)[C@@H]1O (some centres unmarked) [Maltoheptaose]: 0.00 x 10^6

For OC[C@H]1O[C@H](O[C@H]2[C@H](O)[C@@H](O)C(O)O[C@@H]2CO)[C@H](O)[C@@H](O)[C@@H]1O (mixture of isomers) [Maltose] on M-1-P-producing enzyme, measured Product (Peak area x 10^6): DP=8 was 0.00 x 10^6

For OC[C@H]1O[C@H](O[C@H]2[C@H](O)[C@@H](O)[C@@H](O[C@H]3[C@H](O)[C@@H](O)C(O)O[C@@H]3CO)O[C@@H]2CO)[C@H](O)[C@@H](O)[C@@H]1O (some centres unmarked) [Maltotriose] on M-1-P-producing enzyme, measured Product (Peak area x 10^6): DP=8 was 0.00 x 10^6

For OC[C@H]1O[C@H](O[C@H]2[C@H](O)[C@@H](O)[C@@H](O[C@H]3[C@H](O)[C@@H](O)[C@@H](O[C@H]4[C@H](O)[C@@H](O)[C@@H](O[C@H]5[C@H](O)[C@@H](O)C(O)O[C@@H]5CO)O[C@@H]4CO)O[C@@H]3CO)O[C@@H]2CO)[C@H](O)[C@@H](O)[C@@H]1O (some centres unmarked) [Maltopentaose] on M-1-P-producing enzyme, measured Product (Peak area x 10^6): DP=8 was 0.00 x 10^6

Reference source: patent EP1910527B1
